Tested on: U-2 OS
experimental-protocol: IC50 studies, monolayer cell culture assay (CellTiter-Glo cell viability, 72 hours)
Type: cell-based
experimental-parameters: Homo sapiens, U2OS, sarcoma, Test I, read-out: IC50 Test(I) Avg
pIC50: −log10 of the molar value.
attribute-measured: pIC50

Query string: Give recorded pIC50. CC1(C)CCC(C)(C)c2cc(NC(=O)c3ccc(C(=O)O)cc3)ccc21 [TAM, reference compound]
Result string: < 4.00

---

Tested on: PC-3
experimental-protocol: IC50 studies, monolayer cell culture assay (CellTiter-Glo cell viability, 72 hours)
Assay type: cell-based
experimental-parameters: Homo sapiens, PC-3, prostate, Test I, read-out: IC50 Test(I) Avg
pIC50: −log10 of the molar value.
attribute-measured: pIC50

Query string: Give the measured pIC50 for CC1(C)CCC(C)(C)c2cc(NC(=O)c3ccc(C(=O)O)cc3)ccc21 [TAM, reference compound]
Result string: < 4.00
